These measurements were taken from patent US20250170248A1.

Here, each record is paired with measured Dmax data.
Tgt: UniProtKB P51531
Sequence (P51531 whole entry): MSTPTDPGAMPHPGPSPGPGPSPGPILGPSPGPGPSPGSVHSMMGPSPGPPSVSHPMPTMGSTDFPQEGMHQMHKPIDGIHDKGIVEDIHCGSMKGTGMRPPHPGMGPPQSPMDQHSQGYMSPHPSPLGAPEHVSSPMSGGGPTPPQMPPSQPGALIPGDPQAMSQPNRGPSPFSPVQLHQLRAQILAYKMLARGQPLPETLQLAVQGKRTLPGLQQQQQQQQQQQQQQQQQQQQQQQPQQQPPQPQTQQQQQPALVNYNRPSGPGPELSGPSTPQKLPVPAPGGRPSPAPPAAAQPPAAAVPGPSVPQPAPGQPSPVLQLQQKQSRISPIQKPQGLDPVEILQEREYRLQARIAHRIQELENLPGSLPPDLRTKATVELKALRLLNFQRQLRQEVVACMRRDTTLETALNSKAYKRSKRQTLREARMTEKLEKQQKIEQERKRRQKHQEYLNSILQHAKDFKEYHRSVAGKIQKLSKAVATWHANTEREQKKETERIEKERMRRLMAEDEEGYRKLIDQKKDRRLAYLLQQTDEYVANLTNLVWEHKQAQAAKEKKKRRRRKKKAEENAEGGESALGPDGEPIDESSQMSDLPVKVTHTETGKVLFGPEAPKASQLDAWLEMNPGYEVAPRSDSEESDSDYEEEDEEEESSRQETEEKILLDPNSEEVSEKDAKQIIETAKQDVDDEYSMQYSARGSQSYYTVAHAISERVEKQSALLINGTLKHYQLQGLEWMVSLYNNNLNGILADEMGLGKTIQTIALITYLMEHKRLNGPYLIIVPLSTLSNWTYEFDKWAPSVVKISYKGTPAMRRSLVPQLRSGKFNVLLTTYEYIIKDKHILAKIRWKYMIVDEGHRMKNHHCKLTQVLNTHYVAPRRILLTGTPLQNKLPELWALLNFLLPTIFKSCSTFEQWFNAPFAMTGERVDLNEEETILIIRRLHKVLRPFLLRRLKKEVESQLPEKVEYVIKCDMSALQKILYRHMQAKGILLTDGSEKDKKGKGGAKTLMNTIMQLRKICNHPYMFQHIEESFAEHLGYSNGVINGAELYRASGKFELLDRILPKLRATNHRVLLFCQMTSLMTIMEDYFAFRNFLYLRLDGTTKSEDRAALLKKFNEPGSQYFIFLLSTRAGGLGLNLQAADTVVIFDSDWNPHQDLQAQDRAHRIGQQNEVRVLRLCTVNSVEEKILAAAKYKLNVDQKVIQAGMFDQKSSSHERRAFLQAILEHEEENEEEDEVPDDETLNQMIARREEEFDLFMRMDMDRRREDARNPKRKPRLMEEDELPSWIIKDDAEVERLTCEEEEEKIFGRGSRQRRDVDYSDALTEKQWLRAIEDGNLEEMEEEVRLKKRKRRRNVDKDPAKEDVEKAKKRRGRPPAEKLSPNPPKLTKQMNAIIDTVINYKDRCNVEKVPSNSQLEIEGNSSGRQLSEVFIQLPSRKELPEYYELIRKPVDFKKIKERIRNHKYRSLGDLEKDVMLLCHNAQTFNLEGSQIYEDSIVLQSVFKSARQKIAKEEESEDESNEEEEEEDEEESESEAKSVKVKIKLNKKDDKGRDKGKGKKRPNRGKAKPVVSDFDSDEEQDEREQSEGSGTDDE
Protocol summary: SMARCA2 Western blot degradation in MV4-11 cells
Assay type: cell-based
Design: SMARCA2/SMARCA4 protein degradation selectivity in MV4-11 cells; endogenous in cells; host or cells: MV4-11
Conditions used: MV4-11, MV4-11 cells, 24 h; read-out: SMARCA2 MSD MV411 degradation 24 h: average Dmax %

{"Compound": "Cc1ncsc1-c1ccc(CNC(=O)[C@@H]2C[C@@H](O)CN2C(=O)C(c2cc(OC[C@H]3CC[C@H](N4CCC(c5cnc(N6CCc7[nH]c8nnc(-c9ccccc9O)cc8c7[C@@H]6C)nc5)CC4)CC3)no2)C(C)C)cc1 (single isomer, unassigned)", "Tgt": "UniProtKB P51531", "Dmax": "> 90%"}
{"Compound": "C#Cc1ccc(CNC(=O)[C@@H]2C[C@@H](O)CN2C(=O)[C@@H](NC(=O)N2CCC(N3CC4(CC(N5CC6(CC(N7CCc8[nH]c9nnc(-c%10ccccc%10O)cc9c8[C@H]7C)C6)C5)C4)C3)CC2)C(C)(C)C)cc1", "Tgt": "UniProtKB P51531", "Dmax": "< 50%"}
{"Compound": "C#Cc1ccc(CNC(=O)[C@@H]2C[C@@H](O)CN2C(=O)[C@@H](NC(=O)N2CC3(CC(N4CCC(c5cnc(N6CCc7[nH]c8nnc(-c9ccccc9O)cc8c7[C@H]6C)nc5)CC4)C3)C2)C(C)(C)CCN2CCN[C@H](C(=O)O)C2)cc1", "Tgt": "UniProtKB P51531", "Dmax": "< 50%"}
{"Compound": "Cc1ncsc1-c1ccc(CNC(=O)[C@@H]2C[C@@H](O)CN2C(=O)C(c2cc(N3CCC4(CC3)CC(N3CCC(c5cnc(N6CCc7[nH]c8nnc(-c9ccccc9O)cc8c7[C@H]6C)nc5)CC3)C4)no2)C(C)C)cc1 (stereo partly shown)", "Tgt": "UniProtKB P51531", "Dmax": "> 90%"}
{"Compound": "C#Cc1ccc(CNC(=O)[C@@H]2C[C@@H](O)CN2C(=O)[C@@H](NC(=O)N2CC3(CC(CN4CCC(c5cnc(N6CCc7[nH]c8nnc(-c9ccccc9O)cc8c7[C@H]6C)nc5)CC4)C3)C2)C(C)(C)C)cc1", "Tgt": "UniProtKB P51531", "Dmax": "70 to 90%"}
{"Compound": "CC(C)(C)[C@H](NC(=O)[C@H]1CCC2(CC1)C[C@H](N1CCC(c3cnc(N4CCN5c6cc(-c7ccccc7O)nnc6NC[C@H]5C4)nc3)CC1)C2)C(=O)N1C[C@H](O)C[C@H]1C(=O)NCC#Cc1ccc(Cl)cc1 (single isomer, unassigned)", "Tgt": "UniProtKB P51531", "Dmax": "< 50%"}
{"Compound": "C#Cc1ccc([C@H](C)NC(=O)[C@@H]2C[C@@H](O)CN2C(=O)[C@@H](NC(=O)N2CC3(C2)CN(C2CCN(c4cnc(N5CCc6[nH]c7nnc(-c8ccccc8O)cc7c6[C@H]5C)nc4)CC2)C3)C(C)(C)C)cc1", "Tgt": "UniProtKB P51531", "Dmax": "> 90%"}
{"Compound": "C#Cc1ccc(CNC(=O)[C@@H]2C[C@@H](O)CN2C(=O)[C@@H](NC(=O)N2CC3(CC(N4CCC(c5cnc(N6CCc7[nH]c8nnc(-c9ccccc9O)cc8c7[C@H]6C)nc5)CC4)C3)C2)C(C)(C)C)cc1 (single isomer, unassigned)", "Tgt": "UniProtKB P51531", "Dmax": "> 90%"}
{"Compound": "C#Cc1ccc(CNC(=O)[C@@H]2C[C@@H](O)CN2C(=O)[C@@H](NC(=O)[C@H]2CC3(C2)C[C@H](N2CCN(C(=O)CN4CCN5c6cc(-c7ccccc7O)nnc6NC[C@H]5C4)CC2)C3)C(C)(C)C)cc1 (single isomer, unassigned)", "Tgt": "UniProtKB P51531", "Dmax": "> 90%"}
{"Compound": "C#Cc1ccc(CNC(=O)[C@@H]2C[C@@H](O)CN2C(=O)[C@@H](NC(=O)C2CCN(C[C@H]3CC[C@H](N4CCc5[nH]c6nnc(-c7ccccc7O)cc6c5[C@H]4C)CC3)CC2)C(C)(C)C)cc1 (single isomer, unassigned)", "Tgt": "UniProtKB P51531", "Dmax": "70 to 90%"}
{"Compound": "Cn1nccc1-c1ccc(CNC(=O)[C@@H]2C[C@@H](O)CN2C(=O)[C@@H](NC(=O)[C@H]2CC[C@H](c3ccc(-c4cnc(N5CCN6c7cc(-c8ccccc8O)nnc7NC[C@H]6C5)nc4)cc3)CC2)C(C)(C)C)cc1 (single isomer, unassigned)", "Tgt": "UniProtKB P51531", "Dmax": "70 to 90%"}
{"Compound": "Cc1ncsc1-c1ccc(CNC(=O)[C@@H]2C[C@@H](O)CN2C(=O)C(c2cc(OCCN3CCC(N4CCC(c5cnc(N6CCc7[nH]c8nnc(-c9ccccc9O)cc8c7[C@H]6C)nc5)CC4)CC3)no2)C(C)C)cc1 (stereo partly shown)", "Tgt": "UniProtKB P51531", "Dmax": "> 90%"}
{"Compound": "C#CCOc1cc(C(C(=O)N2C[C@H](O)C[C@H]2C(=O)NCc2ccc(-c3scnc3C)cc2O[C@H]2CC[C@H](N3CCC(c4cnc(N5CCc6[nH]c7nnc(-c8ccccc8O)cc7c6[C@H]5C)nc4)CC3)CC2)C(C)C)on1 (single isomer, unassigned)", "Tgt": "UniProtKB P51531", "Dmax": "> 90%"}
{"Compound": "Cc1ncsc1-c1ccc(CNC(=O)[C@@H]2C[C@@H](O)CN2C(=O)[C@@H](NC(=O)[C@H]2CCC3(CC2)C[C@H](N2CCC(c4cnc(N5CCN6c7cc(-c8ccccc8O)nnc7NC[C@H]6C5)nc4)CC2)C3)C(C)(C)C)cc1 (single isomer, unassigned)", "Tgt": "UniProtKB P51531", "Dmax": "70 to 90%"}
{"Compound": "C#Cc1ccc(CNC(=O)[C@@H]2C[C@@H](O)CN2C(=O)[C@@H](NC(=O)N2CCN(C[C@@H]3CCN(c4cnc(N5CCc6[nH]c7nnc(-c8ccccc8O)cc7c6[C@H]5C)nc4)C3)CC2)C(C)(C)C)cc1 (single isomer, unassigned)", "Tgt": "UniProtKB P51531", "Dmax": "50 to 70%"}
{"Compound": "C#Cc1ccc(CNC(=O)[C@@H]2C[C@@H](O)CN2C(=O)[C@@H](NC(=O)[C@H]2CCC3(CC2)C[C@H](N2CCC(c4cnc(N5CCN6c7cc(-c8ccccc8O)nnc7NC[C@H]6C5)nc4)CC2)C3)C(C)(C)C)c(Cl)c1 (single isomer, unassigned)", "Tgt": "UniProtKB P51531", "Dmax": "70 to 90%"}
